# assay-summary: MTT assay for cytotoxicity
# Format: cell-based, Human
# condition-description: human, HepG2.2.15 cells, half (50%) lethal concentration
Kindly supply the reported CC50 at 8 days values for the records listed here.

-- ask Quick one: CC50 at 8 days for Cc1ncccc1-c1nn(Cc2ccc(C#N)cc2)c(=O)c2ccccc12 ?
-- reply > 100 µM

-- ask Please do the same for N#Cc1ccc(Cn2nc(-c3ccc(NC4COC4)nc3F)c3ccccc3c2=O)cc1 as well.
-- reply 88.3 µM

Go through the items and report each one's CC50 at 8 days.
1. CN(C)c1ccc(-c2nn(Cc3ccc(C#N)cc3)c(=O)c3ccccc23)c(F)n1
2. CN(C)CCNc1nc(F)c(-c2nn(Cc3ccc(C#N)cc3)c(=O)c3ccccc23)cc1Cl
3. Cc1ccc(-c2nn(Cc3ccc(Cl)cc3)c(=O)c3cc(C(F)(F)F)c(C(F)(F)F)cc23)c(F)n1
4. [2H]C([2H])(OC)c1ccc(-c2nn(Cc3ccc(Cl)cc3)c(=O)c3ccccc23)c(F)n1
5. CN(C)CCNc1ccc(-c2nn(Cc3ccc(Cl)cc3)c(=O)c3ccccc23)c(F)n1
6. CCNCCNc1nc(F)c(-c2nn(Cc3ccc(C#N)cc3)c(=O)c3ccccc23)cc1Cl
7. CC(O)CNc1nc(F)c(-c2nn(Cc3ccc(C#N)cc3)c(=O)c3ccccc23)cc1Cl (centres unmarked)

-- reply
["> 100 µM", "9.76 µM", "> 100 µM", "> 100 µM", "> 100 µM", "7.38 µM", "71.9 µM"]

###

# assay-summary: Tissue distribution in mice
# Assay type: in vivo
# condition-description: mouse, liver, po 10 mg/kg, 8 h, read-out: Mean drug concentration, Liver
assay-endpoint: concentration at 8 h (ng/g)
Numbers only, in ng/g.

Each compound below has a recorded value; state its concentration at 8 h.
1. Nc1ccc(-c2nn(Cc3ccc(Cl)cc3)c(=O)c3ccccc23)c(F)n1 [Compound I-11]
2. N#Cc1ccc(Cn2nc(-c3ccc(C(F)(F)F)nc3F)c3ccccc3c2=O)cc1 [IV-15]
3. N#Cc1ccc(Cn2nc(-c3ccc(F)nc3F)c3ccccc3c2=O)cc1 [IV-5]
4. Cc1ccc(-c2nn(Cc3ccc(Cl)cc3)c(=O)c3ccccc23)c(F)n1 [Compound I-10]

-- reply
[815, 2800, 1190, 2.91]

###

# assay-summary: Tissue distribution in mice
# Type: in vivo
# condition-description: mouse, liver, po 10 mg/kg, 1 h, read-out: Mean drug concentration, Liver
# Description: 10 μl of a plasma and tissue sample was placed in a 1.5 ml centrifuge tube, added with 100 μl of an internal standard solution (5.00 ng/ml verapamil and 50.0 ng/ml Glibenclamide solution in acetonitrile), vortexed for 60 seconds, and then centrifuged for 3 min (at 12000 rpm); 75 μl of the supernatant was transferred to a 96-well plate loaded with an equal volume of water, and shaken for mixing well and then analyzed. The injection volume was 10 μl. […]
Task for the reader: assign each of the following compounds its reported concentration at 1 h.
Numbers only, in ng/g.

Worked examples follow.
-- ask Can you share its concentration at 1 h? I mean this compound: N#Cc1ccc(Cn2nc(-c3ccc(C(F)(F)F)nc3F)c3ccccc3c2=O)cc1
-- reply 7270

-- ask Item: N#Cc1ccc(Cn2nc(-c3ccc(F)nc3F)c3ccccc3c2=O)cc1
-- reply 1030

-- ask Same lookup for Cc1ccc(-c2cc(C)c(=O)n(Cc3ccc(Cl)cc3)n2)c(F)n1 [I-88, reference compound] , please.
-- reply 34.2

Batch request: concentration at 1 h per item, same order as input.
1. Cc1ccc(-c2nn(Cc3ccc(Cl)cc3)c(=O)c3ccccc23)c(F)n1
2. Nc1ccc(-c2nn(Cc3ccc(Cl)cc3)c(=O)c3ccccc23)c(F)n1

-- reply
[476, 1220]
